Assay: qHTS RealTime-Glo MT Cell Viability Assay in HepG2 cells - 32 hour (AID 1224877); further: nearly all actives have a fitted effect of over 55% in size
Conditions: RealTime-Glo luminescence; series mostly up to 76.8 µM
Inconclusive results are not listed. Active and inactive are the calls of the source. The call rests on the fitted dose curve; in most records, active means well fitted cell-killing curve with a large enough effect in the repeat runs; inconclusive means weak or mixed curves; inactive means flat fitted curve, though single readings scatter.
MEASUREMENT_LABEL: activity change, negative = cytotoxic

# MOLECULE, MEASURED_RESULT
records = [
    ("CCN(CC)C(=O)N(CC)CC", "inactive"),
    ("CC(C)(C)c1ccc(OC(=O)c2ccccc2O)cc1", "inactive"),
    ("NC/C=C/C(=O)O", "inactive"),
    ("CCCCc1ccc2nc(NC(=O)OC)[nH]c2c1", "inactive"),
    ("CCc1cc2cc(OC)c(OC)cc2c(Cc2ccccc2)n1", "inactive"),
    ("COC(=O)C(C)O (stereo not drawn)", "inactive"),
    ("CNCCC(Oc1ccccc1OC)c1ccccc1 (stereo not drawn)", "inactive"),
    ("CCCCCCCCCCCCCCCCOP(=O)([O-])OCC[N+](C)(C)C", "inactive"),
    ("CC1=NN(c2cc(Cl)c(S(=O)(=O)O)cc2Cl)C(=O)C1N=Nc1ccc(S(=O)(=O)O)cc1 (stereo not drawn)", "inactive"),
    ("C/C(=N\\O)[C@@H](C)NCC(C)(C)CN[C@H](C)/C(C)=N/O", "inactive"),
    ("O=C(Cl)c1cccc([N+](=O)[O-])c1", "inactive"),
    ("O=c1[nH]cnc2c1ncn2[C@@H]1O[C@H](CO)[C@@H](O)[C@H]1O", "inactive"),
    ("C=CC1CO1 (stereo not drawn)", "inactive"),
]
